Overview of reported self-cleavage across a group of variants:
B1: CPEB3 Ribozyme (parent)
chain: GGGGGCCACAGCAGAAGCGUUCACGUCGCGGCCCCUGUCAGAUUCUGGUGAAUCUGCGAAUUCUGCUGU

- Variants of: B1
- ASSAY REMARKS: self-cleavage, relative activity (ratio to wild type); higher = more cleavage; co-transcriptional
REPORTED PROPERTY: self-cleavage

{"ITEM SEQUENCE": "GGGCGCCACAGCAGAAGCGUUCACGUCGCGGCCACUGUCAGAUUCUGGUGAAUCUGCGAAUUCUGCUGU [G4C C34A]", "REPORTED PROPERTY": "self-cleavage", "OBSERVED RESULT": 0.16}
{"ITEM SEQUENCE": "GGGGGCCACAGCAGAAGCGUUCACGUCCCGGCCCCUGUCAGAUUCUGGUGAAUCAGCGAAUUCUGCUGU [G28C U55A]", "REPORTED PROPERTY": "self-cleavage", "OBSERVED RESULT": 0.241}
{"ITEM SEQUENCE": "GUGGGCCACAGCAGAAGCGUUCACGUCGCGGCCCCUGUCAGAUUCUGGUGAAUCUGCGAAUUCCGCUGU [G2U U64C]", "REPORTED PROPERTY": "self-cleavage", "OBSERVED RESULT": 0.0967}
{"ITEM SEQUENCE": "GGGGGCCACAGCAGAAGCGUUCACGUCGCGGCCCCUGUCAGAUUCUGGUGAAUCUGCGGAUUCUGUUGU [A59G C66U]", "REPORTED PROPERTY": "self-cleavage", "OBSERVED RESULT": 0.979}
{"ITEM SEQUENCE": "GGGGGCCACAGAAGAAGCGUUCACGUCGCGGCCCCUGUCAGUUUCUGGUGAAUCUGCGAAUUCUGCUGU [C12A A42U]", "REPORTED PROPERTY": "self-cleavage", "OBSERVED RESULT": 0.402}
{"ITEM SEQUENCE": "GGGGGCCACAGCAGAAGCGUUCACGUGGCGGCUCCUGUCAGAUUCUGGUGAAUCUGCGAAUUCUGCUGU [C27G C33U]", "REPORTED PROPERTY": "self-cleavage", "OBSERVED RESULT": 0.188}
{"ITEM SEQUENCE": "GGGGGCCACAGCAGAAGCGUUCACGUAGCGGCCCCUGUCAGAUUCUGGUGAAUCUGCGGAUUCUGCUGU [C27A A59G]", "REPORTED PROPERTY": "self-cleavage", "OBSERVED RESULT": 0.353}
{"ITEM SEQUENCE": "GGGGGCCACAGCAGAAGCGUUCACGUCGCGGCCCCUGUCAGAUUCUCGUGAAUCUGCGAAUUCUGUUGU [G47C C66U]", "REPORTED PROPERTY": "self-cleavage", "OBSERVED RESULT": 1}
{"ITEM SEQUENCE": "GGGGGCCAUAGCAGAAGCGGUCACGUCGCGGCCCCUGUCAGAUUCUGGUGAAUCUGCGAAUUCUGCUGU [C9U U20G]", "REPORTED PROPERTY": "self-cleavage", "OBSERVED RESULT": 0.17}
{"ITEM SEQUENCE": "GGGGGCCACAGCAGAAGCGUUCACGUCGCGGCCCCGGUCAGAUUCUGGGGAAUCUGCGAAUUCUGCUGU [U36G U49G]", "REPORTED PROPERTY": "self-cleavage", "OBSERVED RESULT": 0.197}
{"ITEM SEQUENCE": "GGGGGCCACAGCAGAAGCGUUCACGUCGCGGCCCCUGUAAGAUUCUGUUGAAUCUGCGAAUUCUGCUGU [C39A G48U]", "REPORTED PROPERTY": "self-cleavage", "OBSERVED RESULT": 0.903}
{"ITEM SEQUENCE": "GGGGGCCACAGCAGAAGCGUUCACGUCGCGGCCCCUGUCAGAAUCUGGUGAAUCUGCGAAUUCUGCUGC [U43A U69C]", "REPORTED PROPERTY": "self-cleavage", "OBSERVED RESULT": 1.04}
{"ITEM SEQUENCE": "GGGGGCCACAGCAGAAGCGUUCACGUCGUGGCCCCUGUCAGAUUCUGGUGAAUCUGCGAAUUAUGCUGU [C29U C63A]", "REPORTED PROPERTY": "self-cleavage", "OBSERVED RESULT": 0.176}
{"ITEM SEQUENCE": "GGGGGCCACAGCAGAAGCGUUCACGUCGCGACCCCUGUCAGAUUCUGGUGAAUCUGCGAAUUCUGCGGU [G31A U67G]", "REPORTED PROPERTY": "self-cleavage", "OBSERVED RESULT": 1.01}
{"ITEM SEQUENCE": "GGGGGCCACAGCAGAAGCGUUCACGUCGCGGCCACUGUCAGAUUCUGGUGAAUCUGCGCAUUCUGCUGU [C34A A59C]", "REPORTED PROPERTY": "self-cleavage", "OBSERVED RESULT": 0.302}
{"ITEM SEQUENCE": "GGGGGCCACAGCAGAAGCGUUCACGUCGCGGCCCCUGUCAGGUUCUGGUGAGUCUGCGAAUUCUGCUGU [A42G A52G]", "REPORTED PROPERTY": "self-cleavage", "OBSERVED RESULT": 0.825}
{"ITEM SEQUENCE": "GGGGGCCACAGCAGAACCGUUCACGUCGCGGCGCCUGUCAGAUUCUGGUGAAUCUGCGAAUUCUGCUGU [G17C C33G]", "REPORTED PROPERTY": "self-cleavage", "OBSERVED RESULT": 0.171}
{"ITEM SEQUENCE": "GGGGGCCACAGCCGAAGCGUUCACGUCGCGGCCCCUGUCAGAUUCUGGUAAAUCUGCGAAUUCUGCUGU [A13C G50A]", "REPORTED PROPERTY": "self-cleavage", "OBSERVED RESULT": 0.913}
{"ITEM SEQUENCE": "GGGAGCCACAGCAGAAGCGUUCACGUCGCGGCCCCUGUCAGAUUCUGCUGAAUCUGCGAAUUCUGCUGU [G4A G48C]", "REPORTED PROPERTY": "self-cleavage", "OBSERVED RESULT": 0.802}
{"ITEM SEQUENCE": "GGGGGCCACAGGAGAAGCGUUAACGUCGCGGCCCCUGUCAGAUUCUGGUGAAUCUGCGAAUUCUGCUGU [C12G C22A]", "REPORTED PROPERTY": "self-cleavage", "OBSERVED RESULT": 0.164}
{"ITEM SEQUENCE": "GGGGGCCACAGCAGAAGCGUUCACGUCGCGGCCCCUGUCAGAUUCCGGUGAAUCUCCGAAUUCUGCUGU [U46C G56C]", "REPORTED PROPERTY": "self-cleavage", "OBSERVED RESULT": 0.785}
{"ITEM SEQUENCE": "GGGGGCCACAGCAGAAGCGUUCACGACGCGGCCCCUGUCAGAUUUUGGUGAAUCUGCGAAUUCUGCUGU [U26A C45U]", "REPORTED PROPERTY": "self-cleavage", "OBSERVED RESULT": 0.879}
{"ITEM SEQUENCE": "GGGGGCCACAGCAGAAGCGUUCACGUCGCGGCCCCGGUCAGAUUCUGGUGGAUCUGCGAAUUCUGCUGU [U36G A51G]", "REPORTED PROPERTY": "self-cleavage", "OBSERVED RESULT": 0.179}
{"ITEM SEQUENCE": "GGGGGCCACAGCAGAAGCGUUCACGUCGCGGCCCCCGUCAGAUUCUGGUGAAUCUGCAAAUUCUGCUGU [U36C G58A]", "REPORTED PROPERTY": "self-cleavage", "OBSERVED RESULT": 0.731}
{"ITEM SEQUENCE": "GGGGAGCACAGCAGAAGCGUUCACGUCGCGGCCCCUGUCAGAUUCUGGUGAAUCUGCGAAUUCUGCUGU [G5A C6G]", "REPORTED PROPERTY": "self-cleavage", "OBSERVED RESULT": 0.0495}
{"ITEM SEQUENCE": "GGGGGGCACAGCAGAAGCGUUCACGUCACGGCCCCUGUCAGAUUCUGGUGAAUCUGCGAAUUCUGCUGU [C6G G28A]", "REPORTED PROPERTY": "self-cleavage", "OBSERVED RESULT": 0.0625}
